B1: PLAGL1 (parent)
chain: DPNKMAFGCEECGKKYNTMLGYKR

Variants of: B1
testMethodNotes: protein stability index of a GFP-peptide fusion (GPS, HEK-293T) (PSI 1-6); higher = more stable;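 also: lentivirally expressed fusions sorted by FACS into six bins by GFP to DsRed ratio, PSI derived from sequencing read proportions per bin multiplied by bin number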
conditionsUsed: c terminus: a fixed tail appended
reportedMetric: protein stability index
Numbers only.

P2C: 2.28

Give one value of protein stability index per listed variant.
1. C12E
2. C9K
3. D1T
4. L20R
5. A6N
6. Y16Q
7. N3W

Result ::
[4.78, 3.6, 2.13, 3.46, 2.58, 2.44, 2.23]

Give one value of protein stability index per listed variant.
1. G8P
2. M5L
3. E11K
4. K15S
5. F7V
6. K4P
7. P2G

Result ::
1: 2.31; 2: 2.67; 3: 2.49; 4: 1.96; 5: 2.43; 6: 3.01; 7: 2.05

Give one value of protein stability index per listed variant.
1. E10C
2. K14M
3. R24I
4. N17K
5. A6D
6. A6K
7. T18Q

Result ::
1.74
2.56
2.05
3.06
2.9
2.97
3.04

Give one value of protein stability index per listed variant.
1. Y16F
2. E11A
3. G21P
4. P2A

Result ::
1: 2.68; 2: 2.96; 3: 2.64; 4: 2.26

Cited source for all entries: the supplement of paper PMC10567573
